These entries and their values trace back to ChEMBL document CHEMBL1221304.

Study target: Insulin-like growth factor 1 receptor (Homo sapiens, UniProt P08069)
Sequence (P08069 31-736 limits assumed): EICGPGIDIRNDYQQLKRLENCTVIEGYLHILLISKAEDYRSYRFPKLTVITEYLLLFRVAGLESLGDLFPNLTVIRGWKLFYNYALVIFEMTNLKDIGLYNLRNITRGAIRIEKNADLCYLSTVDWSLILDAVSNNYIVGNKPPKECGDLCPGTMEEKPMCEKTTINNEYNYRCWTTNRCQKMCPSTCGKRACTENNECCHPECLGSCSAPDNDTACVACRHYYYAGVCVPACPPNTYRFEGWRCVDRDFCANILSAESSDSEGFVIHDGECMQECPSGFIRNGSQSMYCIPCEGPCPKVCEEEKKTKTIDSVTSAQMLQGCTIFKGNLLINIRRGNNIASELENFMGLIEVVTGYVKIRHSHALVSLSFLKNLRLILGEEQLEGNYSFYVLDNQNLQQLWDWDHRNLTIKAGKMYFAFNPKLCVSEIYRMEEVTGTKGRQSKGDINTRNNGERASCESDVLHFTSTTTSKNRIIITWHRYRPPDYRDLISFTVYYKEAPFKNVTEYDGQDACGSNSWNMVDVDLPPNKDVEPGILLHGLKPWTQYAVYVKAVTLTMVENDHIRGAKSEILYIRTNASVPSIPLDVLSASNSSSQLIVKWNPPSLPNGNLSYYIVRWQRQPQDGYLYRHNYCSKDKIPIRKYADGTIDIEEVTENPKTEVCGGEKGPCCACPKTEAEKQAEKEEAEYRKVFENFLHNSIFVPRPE
Sequence (P08069 741-1367 limits assumed): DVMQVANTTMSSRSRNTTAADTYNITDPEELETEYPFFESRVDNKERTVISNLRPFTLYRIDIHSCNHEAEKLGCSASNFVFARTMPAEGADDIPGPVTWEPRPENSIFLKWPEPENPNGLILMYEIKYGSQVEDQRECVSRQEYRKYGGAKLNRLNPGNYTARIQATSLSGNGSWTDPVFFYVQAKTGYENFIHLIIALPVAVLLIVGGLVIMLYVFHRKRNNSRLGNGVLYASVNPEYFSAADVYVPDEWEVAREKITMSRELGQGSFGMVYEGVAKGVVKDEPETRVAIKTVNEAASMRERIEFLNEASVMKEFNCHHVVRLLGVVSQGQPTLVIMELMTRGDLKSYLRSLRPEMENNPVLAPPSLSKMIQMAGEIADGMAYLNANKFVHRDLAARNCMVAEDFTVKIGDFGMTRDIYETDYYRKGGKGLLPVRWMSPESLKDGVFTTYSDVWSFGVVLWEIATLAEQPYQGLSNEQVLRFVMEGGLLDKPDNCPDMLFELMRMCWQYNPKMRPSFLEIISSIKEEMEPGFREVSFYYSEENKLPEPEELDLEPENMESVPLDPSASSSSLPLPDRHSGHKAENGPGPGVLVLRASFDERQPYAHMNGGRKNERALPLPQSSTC
Protocol summary: Inhibition of IGF1R in IGF1R-SAL cells
Type: cell-based
pIC50: −log10 of the molar value.
Reported endpoint: pIC50

Worked examples follow.
O=C(Nc1ccc(F)nc1)C1=C(c2nc(Nc3cc(C4CC4)[nH]n3)c3cccn3n2)CCC1 :: 6.63
O=C(Nc1ccc(F)nc1)[C@@H]1CCC[C@H]1c1nc(Nc2cc(C3CC3)n[nH]2)c2cccn2n1 (stereo in doubt; (-)-25) :: 6.41
O=C(Nc1ccc(F)nc1)[C@@H]1CCC[C@H]1c1nc(Nc2cc(C3CC3)n[nH]2)c2cccn2n1 (stereo in doubt; (+)-25) :: 6.69

(A) O=C1CC[C@@H](c2nc(Nc3cc(C4CC4)[nH]n3)c3cccn3n2)N1C(=O)c1ccc(F)nc1
(B) O=C(Nc1ccc(F)nc1)[C@@H]1CCCN1c1nc(Nc2cc(C3CC3)[nH]n2)c2cccn2n1
Lab note: check whether A or B shows the higher recorded pIC50. Provide the label of your selected option as the answer. B
(B: 9.00, A: 6.29)
